# experimental target: human CD33 E224A (human, UniProt P20138 18-364)
# Sequence (P20138 18-364 E224A limits assumed): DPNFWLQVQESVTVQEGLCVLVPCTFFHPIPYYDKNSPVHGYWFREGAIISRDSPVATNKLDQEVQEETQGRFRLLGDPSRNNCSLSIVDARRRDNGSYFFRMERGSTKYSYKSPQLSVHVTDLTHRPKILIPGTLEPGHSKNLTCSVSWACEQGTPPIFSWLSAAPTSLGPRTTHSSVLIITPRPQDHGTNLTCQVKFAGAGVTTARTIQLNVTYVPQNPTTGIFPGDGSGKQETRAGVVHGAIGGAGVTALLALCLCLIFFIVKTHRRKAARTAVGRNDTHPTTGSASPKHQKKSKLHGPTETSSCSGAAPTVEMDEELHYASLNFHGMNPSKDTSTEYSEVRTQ
# test: alanine scan, flow cytometry, HEK293-T;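 note: antibody binding to each alanine-substituted CD33 mutant expressed transiently in HEK293-T, read as fluorescence minus background, mean of duplicates, relative to wild-type CD33 set as 100%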
reported endpoint: Mean % WT Binding (%)
Numbers only; they are read as %.

The examples below pair each entry with its known result.
Refmab #1 (antibody, V domains shown, In the alanine scan antibodies were used as IgG or Fab; also called hP67.6) VH: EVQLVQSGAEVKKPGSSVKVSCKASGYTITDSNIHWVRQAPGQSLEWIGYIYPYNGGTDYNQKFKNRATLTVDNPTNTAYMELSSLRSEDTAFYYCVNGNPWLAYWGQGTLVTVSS VL: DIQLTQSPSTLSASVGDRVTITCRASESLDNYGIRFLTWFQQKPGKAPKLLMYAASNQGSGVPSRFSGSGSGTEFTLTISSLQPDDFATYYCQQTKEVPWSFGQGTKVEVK : 95.4
Refmab #4 (antibody, V domains shown, In the alanine scan antibodies were used as IgG or Fab) VH: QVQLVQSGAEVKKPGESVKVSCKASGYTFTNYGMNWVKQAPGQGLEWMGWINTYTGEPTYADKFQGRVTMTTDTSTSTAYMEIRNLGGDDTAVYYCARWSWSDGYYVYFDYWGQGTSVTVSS VL: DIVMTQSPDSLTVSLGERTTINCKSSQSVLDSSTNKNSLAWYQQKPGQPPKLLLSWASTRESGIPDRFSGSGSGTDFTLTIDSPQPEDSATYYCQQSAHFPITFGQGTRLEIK : 107

Returns the measured Mean % WT Binding for the input binder. Input: Refmab #2 (antibody, V domains shown, In the alanine scan antibodies were used as IgG or Fab) VH: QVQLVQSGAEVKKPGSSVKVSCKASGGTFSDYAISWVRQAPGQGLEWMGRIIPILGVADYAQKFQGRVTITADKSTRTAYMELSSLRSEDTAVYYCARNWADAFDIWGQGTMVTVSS VL: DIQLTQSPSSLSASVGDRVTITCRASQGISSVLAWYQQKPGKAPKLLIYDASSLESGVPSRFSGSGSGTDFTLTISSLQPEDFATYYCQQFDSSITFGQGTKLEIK
102
